Molecular target: human recombinant 5-HT2C receptor (Homo sapiens (Human))
Sequence (P28335 whole entry, looked up): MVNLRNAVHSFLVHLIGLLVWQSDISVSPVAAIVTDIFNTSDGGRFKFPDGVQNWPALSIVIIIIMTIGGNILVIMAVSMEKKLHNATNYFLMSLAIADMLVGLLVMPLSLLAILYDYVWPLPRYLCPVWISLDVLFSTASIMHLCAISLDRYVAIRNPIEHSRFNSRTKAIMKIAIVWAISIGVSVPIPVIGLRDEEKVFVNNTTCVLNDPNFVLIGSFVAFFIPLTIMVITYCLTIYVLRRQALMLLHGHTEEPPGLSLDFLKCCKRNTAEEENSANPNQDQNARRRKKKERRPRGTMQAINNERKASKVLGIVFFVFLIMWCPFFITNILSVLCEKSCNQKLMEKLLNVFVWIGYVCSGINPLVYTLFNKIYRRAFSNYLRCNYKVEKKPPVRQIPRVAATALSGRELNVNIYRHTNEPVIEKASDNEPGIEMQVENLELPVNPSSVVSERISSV
Assay: biochemical
Format: binding
Details: human serotonin 5-HT2C receptor binding, [3H]-Mesulergine; read-out: h-5-HT2C Ki
pKi: −log10 of the molar value.
outcome-measure: pKi

Below: 3 compounds and their reported pKi.
Given CCCOc1ccc(CNC(=O)N(Cc2cc(C)n(C)n2)[C@H]2CCNC[C@H]2F)cc1 , state its recorded pKi. 7.00 to 8.00

Consider the compound shown here: CN1CCC(N(Cc2ccn(C)n2)C(=O)NCc2ccc(OCC3CC3)cc2)C2(CC2)C1 (racemic) What is its recorded pKi? > 8.00

Which pKi value is on record for CC(C)CNc1ccc(CNC(=O)N(Cc2ccc(F)cn2)C2CCN(C)CC2)cc1 ? > 8.00

Please report pKi for every entry that follows.
1. CC(C)COc1ccc(CNC(=O)N(Cc2cn(C)c3ccccc23)C2CCN(C)CC2)cc1
2. C[C@@H](F)COc1ccc(CNC(=O)N(Cc2ccc(F)cn2)C2CCN(C)CC2)cc1
3. COc1ccc(COC(=O)N(Cc2ccn(C)c2)C2CCN(C)CC2)cc1
4. Cc1ccc(CNC(=O)N(Cc2cc(C)n(C)n2)C2CCN(C)CC23CC3)cc1 (racemic)
5. CN1CCC(N(Cc2ccc(F)cn2)C(=O)NCc2ccc(OCC(F)(F)C(F)F)cc2)CC1

< 7.00
7.00 to 8.00
> 8.00
> 8.00
> 8.00
